Data origin: ChEMBL document CHEMBL5678813

# ASSAY DETAILS: Total clearance in mouse at 0.1 mg/kg, iv administered as cassette dose by LC/MS/MS analysis
# Assay type: ADME, organism-based
# DETAILS: in vivo
OBSERVED PROPERTY: clearance (mL/min/kg)

query_smiles=Cc1cc(C(F)(F)F)nn1-c1cnc(N2CCc3cc(S(=O)(=O)Nc4c(F)cc(Cl)cc4F)cc(N4CCCC4=O)c32)nc1 observed_property=clearance measured_result=7.85
query_smiles=Cn1nc(C(F)(F)F)cc1-c1cnc(N2CCc3cc(S(=O)(=O)Nc4c(F)cc(Cl)cc4F)cc(N4CCCC4=O)c32)nc1 observed_property=clearance measured_result=3.42
query_smiles=Cn1nc(C(F)(F)F)cc1-c1cnc(N2CCc3cc(S(=O)(=O)Nc4c(F)cc(Cl)cc4F)cc(N4CCNC4=O)c32)nc1 observed_property=clearance measured_result=39.5

###

# MEASUREMENT TARGET: CYP3A4 (Homo sapiens)
# Sequence (P08684 whole entry): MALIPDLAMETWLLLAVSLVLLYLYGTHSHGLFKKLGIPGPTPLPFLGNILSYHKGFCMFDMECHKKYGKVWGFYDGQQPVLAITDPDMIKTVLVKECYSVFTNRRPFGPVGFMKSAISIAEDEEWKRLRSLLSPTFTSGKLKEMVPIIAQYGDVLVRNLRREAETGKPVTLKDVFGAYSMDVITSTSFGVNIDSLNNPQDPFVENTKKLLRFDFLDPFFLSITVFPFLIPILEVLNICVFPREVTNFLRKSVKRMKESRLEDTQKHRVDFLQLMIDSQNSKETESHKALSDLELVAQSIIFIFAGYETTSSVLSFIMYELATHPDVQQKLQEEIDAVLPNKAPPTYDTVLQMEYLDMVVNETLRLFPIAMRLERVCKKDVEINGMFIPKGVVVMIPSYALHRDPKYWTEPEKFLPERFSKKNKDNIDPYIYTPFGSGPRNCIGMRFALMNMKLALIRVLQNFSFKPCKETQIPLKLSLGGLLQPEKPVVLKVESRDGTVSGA
# ASSAY DETAILS: Time-dependent inhibition of CYP3A4 in human liver microsomes using testosterone as substrate assessed as remaining activity at 30 uM preincubated with compound in presence of NADPH-generating system followed by substrate addition by UPLC analysis relative to control
# Format: ADME, Microsome
# DETAILS: human liver microsomes, probe testosterone, read-out: Activity
# reported activity at 30 µM; entries follow
OBSERVED PROPERTY: activity at 30 µM (%)

query_smiles=O=C1CCCN1c1cc(S(=O)(=O)Nc2ccc(F)cc2F)cc2c1N(C(=O)Nc1ccc(C(F)(F)F)cc1)CC2 measured_result=43
query_smiles=O=C1CCCN1c1cc(S(=O)(=O)Nc2c(F)cc(Cl)cc2F)cc2c1N(C(=O)Nc1ccc(C(F)(F)F)cc1)CC2 measured_result=89
query_smiles=O=C1CCCN1c1cc(S(=O)(=O)Nc2c(F)cc(Cl)cc2F)cc2c1N(C(=O)OC1CCN(CC(F)(F)C(F)(F)F)CC1)CC2 measured_result=82
query_smiles=O=C1CCCN1c1cc(S(=O)(=O)Nc2ccc(F)cc2F)cc2c1N(C(=O)OC1CCN(CC(F)(F)C(F)(F)F)CC1)CC2 measured_result=59
query_smiles=O=C1CCCN1c1cc(S(=O)(=O)Nc2c(F)cc(F)cc2F)cc2c1N(C(=O)OC1CCN(CC(F)(F)C(F)(F)F)CC1)CC2 measured_result=95
query_smiles=O=C1CCCN1c1cc(S(=O)(=O)Nc2ccc(C(F)(F)F)cc2F)cc2c1N(C(=O)OC1CCN(CC(F)(F)C(F)(F)F)CC1)CC2 measured_result=93
query_smiles=CC(=O)Nc1cc(S(=O)(=O)Nc2ccc(F)cc2F)cc2c1N(CCc1ccccc1)CC2 measured_result=13

###

# ASSAY DETAILS: Permeability of compound at pH 7.4 by PAMPA assay
# Type: ADME
# DETAILS: read-out: permeability
OBSERVED PROPERTY: Papp (×10⁻⁶ cm/s)

query_smiles=Cn1nc(C(F)(F)F)cc1-c1cnc(N2CCc3cc(S(=O)(=O)Nc4c(F)cc(Cl)cc4F)cc(N4CCNC4=O)c32)nc1 readout_unit="×10⁻⁶ cm/s" measured_result=4
query_smiles=Cn1nc(C(F)(F)F)cc1-c1cnc(N2CCc3cc(S(=O)(=O)Nc4c(F)cc(Cl)cc4F)cc(N4CCCC4=O)c32)nc1 readout_unit="×10⁻⁶ cm/s" measured_result=16.6
query_smiles=Cc1cc(C(F)(F)F)nn1-c1cnc(N2CCc3cc(S(=O)(=O)Nc4c(F)cc(Cl)cc4F)cc(N4CCCC4=O)c32)nc1 readout_unit="×10⁻⁶ cm/s" measured_result=18.5

###

# reported Activity; entries follow
# Test system: NIH3T3
# ASSAY DETAILS: Cytotoxicity against BALB/c mouse 3T3 cells assessed as reduction in cell viability at 6.25 uM incubated for 1 hrs in absence of UV irradiation by Celltiter-Glo assay relative to control
# Format: toxicity, cell-based
# DETAILS: nih3t3, 1 h
OBSERVED PROPERTY: Activity

compound="Cn1nc(C(F)(F)F)cc1-c1cnc(N2CCc3cc(S(=O)(=O)Nc4c(F)cc(Cl)cc4F)cc(N4CCCC4=O)c32)nc1 [TP-020]" measured_result=99%
compound=O=C1CCCN1c1cc(S(=O)(=O)Nc2c(F)cc(Cl)cc2F)cc2c1N(c1ncc(-c3ccc(C(F)(F)F)cc3F)cn1)CC2 measured_result=98%
compound=Cn1nc(C(F)(F)F)cc1-c1cnc(N2CCc3cc(S(=O)(=O)Nc4c(F)cc(Cl)cc4F)cc(N4CCNC4=O)c32)nc1 measured_result=111%
compound=O=C1CCCN1c1cc(S(=O)(=O)Nc2c(F)cc(Cl)cc2F)cc2c1N(c1ncc(-c3ccc(C(F)(F)F)cc3)cn1)CC2 measured_result=105%
compound=Cc1cc(C(F)(F)F)nn1-c1cnc(N2CCc3cc(S(=O)(=O)Nc4c(F)cc(Cl)cc4F)cc(N4CCCC4=O)c32)nc1 measured_result=112%
compound=O=C1CCCN1c1cc(S(=O)(=O)Nc2c(F)cc(Cl)cc2F)cc2c1N(c1ncc(-n3ccc(C(F)(F)F)n3)cn1)CC2 measured_result=105%
compound=O=C1CCCN1c1cc(S(=O)(=O)Nc2c(F)cc(Cl)cc2F)cc2c1N(c1ncc(-n3cc(C(F)(F)F)cn3)cn1)CC2 measured_result=109%
compound=O=C1CCCN1c1cc(S(=O)(=O)Nc2c(F)cc(Cl)cc2F)cc2c1N(c1ccc(-c3ccc(C(F)(F)F)cc3)cc1)CC2 measured_result=95%

###

# MEASUREMENT TARGET: 2-acylglycerol O-acyltransferase 2 (Homo sapiens, UniProt Q3SYC2)
# Sequence (Q3SYC2 whole entry): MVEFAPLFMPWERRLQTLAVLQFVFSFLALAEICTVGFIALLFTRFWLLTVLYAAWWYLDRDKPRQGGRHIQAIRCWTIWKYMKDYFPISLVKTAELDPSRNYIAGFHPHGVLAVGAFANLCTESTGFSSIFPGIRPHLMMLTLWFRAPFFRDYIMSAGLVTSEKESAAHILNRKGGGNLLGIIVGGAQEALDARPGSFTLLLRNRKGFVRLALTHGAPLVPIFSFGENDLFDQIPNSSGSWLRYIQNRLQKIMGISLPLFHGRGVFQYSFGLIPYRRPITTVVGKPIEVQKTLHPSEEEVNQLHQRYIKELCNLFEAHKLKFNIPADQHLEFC
# ASSAY DETAILS: Inhibition of N-terminal FLAG-tagged full-length human MGAT2 expressed in human FreeStyle 293-F cell membrane using 13Cx18oleoyl-CoA and 2-oleoyl-glycerol as substrate preincubated for 60 mins followed by substrate addition and measured after 30 mins by RapidFire mass spectrometric analysis
pIC50: −log10 of the molar value.
Label rule, in plain words: pIC50 of 8 and up is Fulfilled, under 8 is Not fulfilled.

query_smiles=Cc1cc(C(F)(F)F)nn1-c1cnc(N2CCc3cc(S(=O)(=O)Nc4c(F)cc(Cl)cc4F)cc(N4CCCC4=O)c32)nc1 category=Fulfilled
query_smiles=O=C1CCCN1c1cc(S(=O)(=O)Nc2c(F)cc(Cl)cc2F)cc2c1N(c1ncc(-c3ccc(C(F)(F)F)cc3F)cn1)CC2 category=Fulfilled
query_smiles=O=C1CCCN1c1cc(S(=O)(=O)Nc2c(F)cc(Cl)cc2F)cc2c1N(C(=O)Nc1ccc(C(F)(F)F)cc1)CC2 category="Not fulfilled"
query_smiles=Cn1nc(C(F)(F)F)cc1-c1cnc(N2CCc3cc(S(=O)(=O)Nc4c(F)cc(Cl)cc4F)cc(N4CCNC4=O)c32)nc1 category=Fulfilled
query_smiles=O=C1CCCN1c1cc(S(=O)(=O)Nc2ccc(C(F)(F)F)cc2F)cc2c1N(C(=O)OC1CCN(CC(F)(F)C(F)(F)F)CC1)CC2 category="Not fulfilled"
query_smiles=O=C1CCCN1c1cc(S(=O)(=O)Nc2c(F)cc(F)cc2F)cc2c1N(C(=O)OC1CCN(CC(F)(F)C(F)(F)F)CC1)CC2 category="Not fulfilled"
query_smiles=CC(=O)Nc1cc(S(=O)(=O)Nc2ccc(F)cc2F)cc2c1N(CCc1ccccc1)CC2 category=Fulfilled
query_smiles=O=C1CCCN1c1cc(S(=O)(=O)Nc2ccc(F)cc2F)cc2c1N(C(=O)OC1CCN(CC(F)(F)C(F)(F)F)CC1)CC2 category=Fulfilled
query_smiles=O=C1CCCN1c1cc(S(=O)(=O)Nc2c(F)cc(Cl)cc2F)cc2c1N(c1ccc(-c3ccc(C(F)(F)F)cc3)cc1)CC2 category=Fulfilled
query_smiles=O=C1CCCN1c1cc(S(=O)(=O)Nc2c(F)cc(Cl)cc2F)cc2c1N(C(=O)OC1CCN(CC(F)(F)C(F)(F)F)CC1)CC2 category="Not fulfilled"
query_smiles=O=C1CCCN1c1cc(S(=O)(=O)Nc2ccc(F)cc2F)cc2c1N(C(=O)Nc1ccc(C(F)(F)F)cc1)CC2 category=Fulfilled
query_smiles=O=C1CCCN1c1cc(S(=O)(=O)Nc2c(F)cc(Cl)cc2F)cc2c1N(c1ncc(-c3ccc(C(F)(F)F)cc3)cn1)CC2 category=Fulfilled

###

# MEASUREMENT TARGET: Sterol O-acyltransferase 1 (Homo sapiens, UniProt P35610)
# Sequence (P35610 whole entry): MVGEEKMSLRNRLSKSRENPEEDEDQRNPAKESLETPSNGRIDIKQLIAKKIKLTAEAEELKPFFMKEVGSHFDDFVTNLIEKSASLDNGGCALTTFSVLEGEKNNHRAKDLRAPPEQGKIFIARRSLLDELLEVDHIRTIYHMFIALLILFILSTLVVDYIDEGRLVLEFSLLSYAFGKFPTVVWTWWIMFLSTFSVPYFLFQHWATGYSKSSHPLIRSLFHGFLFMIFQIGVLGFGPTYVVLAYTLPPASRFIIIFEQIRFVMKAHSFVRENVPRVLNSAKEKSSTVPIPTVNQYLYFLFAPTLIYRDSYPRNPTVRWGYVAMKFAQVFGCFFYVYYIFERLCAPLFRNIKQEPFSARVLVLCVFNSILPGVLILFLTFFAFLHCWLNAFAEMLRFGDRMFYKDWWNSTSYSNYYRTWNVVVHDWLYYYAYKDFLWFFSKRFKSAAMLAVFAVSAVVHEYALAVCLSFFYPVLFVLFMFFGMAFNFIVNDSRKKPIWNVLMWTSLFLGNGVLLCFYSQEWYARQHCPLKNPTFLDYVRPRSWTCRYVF
# ASSAY DETAILS: Inhibition of N-terminal FLAG-tagged full-length human ACAT1 expressed in recombinant baculovirus infected Sf21 cells using [1-14C]-oleoyl-CoA and cholesterol as substrate incubated for 40 mins by TLC analysis
pIC50: −log10 of the molar value.
OBSERVED PROPERTY: pIC50

query_smiles=Cn1nc(C(F)(F)F)cc1-c1cnc(N2CCc3cc(S(=O)(=O)Nc4c(F)cc(Cl)cc4F)cc(N4CCCC4=O)c32)nc1 measured_result="< 5.00"
